# study-system: T1, 4H2717-bN
# T1 chain: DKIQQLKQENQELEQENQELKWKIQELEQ
# test-name: two-hybrid library CCNG1;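 note: natural log of median RNA to DNA barcode read ratio; higher means stronger binding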
experimental-readout: interaction score

Below, 2 binders whose answers are already recorded.
binder	measurement
DKIQQLKQEIQELEQENQELKWENQELKQ [4H2588-bN]	0.223
DKIQQLEQKNQELEQKIQELKWEIQELEQ [4H2473-bN]	-2.13

A: DKIQQLEQENQELEQKIQELKWKNQELEQ [4H2223-bN]
B: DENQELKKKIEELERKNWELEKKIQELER [4H1845-bH]
Task: For this pair, A and B , which shows a numerically higher interaction score? Label of pick, please.
Result: B
